Ref: ChEMBL document CHEMBL1201862

# System: A498
# test-name: NCI tumour cell line growth inhibition, 48 h
The source made the active and inactive calls. Cut-off read from the data, not from the text of the source: active = GI50 up to about 1.1 µM and inactive = higher.
measure: GI50

Use these answered entries as a reference point.
                                   compound             measured
0  C=C(CCC/C(C)=C/C=C/[C@@H](C)CCCc1ccoc1)C[C@@H]1OC(=O)[C@H](C)[C@@H]1O   7.26 µM (inactive)
1              Cc1n[nH]c(=O)n1/N=C/c1ccncc1  > 100 µM (inactive)

Now look at this one.
Return GI50 for the following compound: N/N=C(\C(=O)Nc1ccc([N+](=O)[O-])cc1)C(C1=Nc2cc([N+](=O)[O-])ccc2NC1)[N+](=O)[O-] (stereo not drawn)
> 100 µM (inactive)
